- EXPERIMENTAL PROTOCOL: UV-visible absorption and fluorescence spectra, fluorescence quantum yields in solution
- Assay type: physicochemical
- MEASUREMENT PARAMETERS: methylene chloride solution (Table 9, Example 13)
RECORDED ENDPOINT: Absorption maxima (nm)

{"columns": ["MOLECULAR STRING", "Absorption maxima [nm]"],
 "data": [
  ["C#CC1=C(C)C2=C(c3cc(OCCCCCCCCCCCC)c(OCCCCCCCCCCCC)c(OCCCCCCCCCCCC)c3)c3c(C)c(C#C)c(C)n3[B-](F)(F)[N+]2=C1C", 541],
  ["CCCCCCCCCCCCOc1cc(C2=C3C(C)=C(I)C(C)=[N+]3[B-](F)(F)n3c(C)c(I)c(C)c32)cc(OCCCCCCCCCCCC)c1OCCCCCCCCCCCC", 535],
  ["CCCCCCCCCCCCOc1ccc(C2=C3C(C)=C(I)C(C)=[N+]3[B-](F)(F)n3c(C)c(I)c(C)c32)cc1OCCCCCCCCCCCC", 534],
  ["CCCCCCCCCCCCOc1cc(C2=C3C(C)=C(C#C[Si](C)(C)C)C(C)=[N+]3[B-](F)(F)n3c(C)c(C#C[Si](C)(C)C)c(C)c32)cc(OCCCCCCCCCCCC)c1OCCCCCCCCCCCC", 556],
  ["CCCCCCCCCCCCOc1cc(C2=C3C(C)=CC(C)=[N+]3[B-](F)(F)n3c(C)cc(C)c32)cc(OCCCCCCCCCCCC)c1OCCCCCCCCCCCC", 503],
  ["CCCCCCCCCCCCOc1ccc(C2=C3C(C)=CC(C)=[N+]3[B-](F)(F)n3c(C)cc(C)c32)cc1", 501],
  ["CCCCCCCCCCCCOc1ccc(C2=C3C(C)=CC(C)=[N+]3[B-](F)(F)n3c(C)cc(C)c32)cc1OCCCCCCCCCCCC", 502],
  ["C#CC1=C(C)C2=C(c3ccc(OCCCCCCCCCCCC)cc3)c3c(C)c(C#C)c(C)n3[B-](F)(F)[N+]2=C1C", 539],
  ["CCCCCCCCCCCCOc1ccc(C2=C3C(C)=C(C#C[Si](C)(C)C)C(C)=[N+]3[B-](F)(F)n3c(C)c(C#C[Si](C)(C)C)c(C)c32)cc1OCCCCCCCCCCCC", 555],
  ["C#CC1=C(C)C2=C(c3ccc(OCCCCCCCCCCCC)c(OCCCCCCCCCCCC)c3)c3c(C)c(C#C)c(C)n3[B-](F)(F)[N+]2=C1C", 540],
  ["CCCCCCCCCCCCOc1ccc(C2=C3C(C)=C(I)C(C)=[N+]3[B-](F)(F)n3c(C)c(I)c(C)c32)cc1", 533],
  ["CCCCCCCCCCCCOc1ccc(C2=C3C(C)=C(C#C[Si](C)(C)C)C(C)=[N+]3[B-](F)(F)n3c(C)c(C#C[Si](C)(C)C)c(C)c32)cc1", 554]
]}
